The compounds listed here are annotated with their inhibition.
# assay-target: CDK3/Cyclin E (Homo sapiens) (UniProt P24864+Q00526);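 also: reported percentages are mean inhibition values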
# Sequence (P24864 whole entry, looked up): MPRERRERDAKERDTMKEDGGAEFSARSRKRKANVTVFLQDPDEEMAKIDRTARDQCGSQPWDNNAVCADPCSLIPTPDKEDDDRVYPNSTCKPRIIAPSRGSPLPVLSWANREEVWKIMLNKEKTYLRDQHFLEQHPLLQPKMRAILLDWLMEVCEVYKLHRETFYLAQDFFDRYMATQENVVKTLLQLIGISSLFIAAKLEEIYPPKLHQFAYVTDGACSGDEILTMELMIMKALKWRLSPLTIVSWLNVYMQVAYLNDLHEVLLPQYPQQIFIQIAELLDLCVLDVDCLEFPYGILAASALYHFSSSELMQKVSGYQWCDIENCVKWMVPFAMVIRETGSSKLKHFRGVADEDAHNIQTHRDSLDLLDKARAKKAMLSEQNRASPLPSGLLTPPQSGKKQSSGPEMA
# Sequence (Q00526 whole entry, looked up): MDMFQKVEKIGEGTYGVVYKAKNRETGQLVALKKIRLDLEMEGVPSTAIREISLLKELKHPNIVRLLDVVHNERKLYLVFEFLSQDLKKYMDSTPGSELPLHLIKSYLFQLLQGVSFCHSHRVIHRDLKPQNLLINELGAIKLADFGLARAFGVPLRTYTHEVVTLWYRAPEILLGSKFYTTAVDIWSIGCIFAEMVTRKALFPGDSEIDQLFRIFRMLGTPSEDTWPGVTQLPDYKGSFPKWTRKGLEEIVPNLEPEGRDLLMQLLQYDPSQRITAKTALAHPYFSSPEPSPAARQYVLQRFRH
# stated-conditions: at 0.1 µM
Report the figure in % without appending any unit label.

Note to self: inhibition recorded for Cc1cccc(Nc2ncc(-c3ccccc3)o2)c1 was -0.22

Note to self: inhibition recorded for c1ccc(-c2nc3n(c2-c2ccc4c(c2)OCO4)CCC3)nc1 was 2.37

Note to self: inhibition recorded for Nc1nc(-c2ccc(F)cc2)c(-c2ccc3ncccc3n2)s1 was 3.73

Note to self: inhibition recorded for CC(=O)Nc1cccc(C#Cc2cncnc2Nc2ccc(OCc3cccc(F)c3)c(Cl)c2)c1 was 1.66

Note to self: inhibition recorded for Clc1ccc(-c2nn3ncccc3c2-c2ccnc(Nc3ccccc3)n2)cc1 was 1.03

Note to self: inhibition recorded for COc1cc(/C=N/Nc2ncnc3[nH]ncc23)ccc1O was 1.56

Note to self: inhibition recorded for O=S(=O)(CCNCc1ccc(-c2ccc3ncnc(Nc4ccc(OCc5cccc(F)c5)c(Cl)c4)c3c2)o1)c1ccccc1 was 0.01

* * *

# assay-target: Death-associated protein kinase 1 (Homo sapiens) (UniProt P53355);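 also: each value is a mean inhibition figure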
# Sequence (P53355 whole entry, looked up): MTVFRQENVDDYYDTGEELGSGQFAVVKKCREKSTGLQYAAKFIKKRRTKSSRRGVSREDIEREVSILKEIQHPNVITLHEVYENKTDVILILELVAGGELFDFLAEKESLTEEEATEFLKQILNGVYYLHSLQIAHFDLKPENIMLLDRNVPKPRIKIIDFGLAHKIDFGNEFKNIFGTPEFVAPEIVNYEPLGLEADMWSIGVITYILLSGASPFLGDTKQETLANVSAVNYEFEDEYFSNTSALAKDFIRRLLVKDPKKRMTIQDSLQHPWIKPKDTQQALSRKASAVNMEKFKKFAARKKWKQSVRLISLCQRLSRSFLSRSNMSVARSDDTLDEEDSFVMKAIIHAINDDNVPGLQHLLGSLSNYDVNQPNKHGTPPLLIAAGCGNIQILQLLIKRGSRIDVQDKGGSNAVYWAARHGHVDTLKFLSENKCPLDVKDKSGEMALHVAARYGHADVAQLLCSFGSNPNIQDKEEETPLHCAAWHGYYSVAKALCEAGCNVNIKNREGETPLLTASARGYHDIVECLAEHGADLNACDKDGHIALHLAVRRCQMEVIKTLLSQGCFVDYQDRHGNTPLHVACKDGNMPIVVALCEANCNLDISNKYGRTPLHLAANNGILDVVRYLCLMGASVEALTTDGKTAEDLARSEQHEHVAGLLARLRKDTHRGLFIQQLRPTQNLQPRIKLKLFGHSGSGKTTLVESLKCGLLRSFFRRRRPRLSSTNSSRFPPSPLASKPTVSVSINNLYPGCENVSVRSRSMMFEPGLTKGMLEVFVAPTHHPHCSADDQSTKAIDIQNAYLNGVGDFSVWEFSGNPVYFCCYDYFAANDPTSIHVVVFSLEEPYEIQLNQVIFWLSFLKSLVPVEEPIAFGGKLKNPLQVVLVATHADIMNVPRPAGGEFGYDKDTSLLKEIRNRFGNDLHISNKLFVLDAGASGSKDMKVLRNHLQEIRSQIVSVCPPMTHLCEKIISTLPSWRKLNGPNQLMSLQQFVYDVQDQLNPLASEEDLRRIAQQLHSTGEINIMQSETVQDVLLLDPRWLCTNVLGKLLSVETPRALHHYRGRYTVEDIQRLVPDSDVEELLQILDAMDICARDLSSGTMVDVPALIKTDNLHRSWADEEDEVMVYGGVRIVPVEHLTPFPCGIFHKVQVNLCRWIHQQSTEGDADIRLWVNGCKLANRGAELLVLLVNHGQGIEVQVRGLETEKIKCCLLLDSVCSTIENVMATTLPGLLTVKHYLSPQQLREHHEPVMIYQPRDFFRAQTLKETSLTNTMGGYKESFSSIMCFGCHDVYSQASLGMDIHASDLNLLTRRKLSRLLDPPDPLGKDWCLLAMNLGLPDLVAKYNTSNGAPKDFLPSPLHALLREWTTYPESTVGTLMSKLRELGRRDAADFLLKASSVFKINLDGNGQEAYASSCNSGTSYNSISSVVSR
# stated-conditions: at 1 µM
observed-property: inhibition

COc1cc(N2CCN(C(C)C)CC2)ccc1Nc1nc(Nc2ccc(F)cc2C(N)=O)c2cc[nH]c2n1 : 46%

Note to self: inhibition recorded for Fc1ccc(-c2nn3ccccc3c2-c2ccncc2)cc1 was 0.99%

Note to self: inhibition recorded for CN(C)CCOc1ccc(-c2nc(-c3ccncc3)c(-c3ccc4c(c3)CC/C4=N\O)[nH]2)cc1 was 5.09%

Note to self: inhibition recorded for NS(=O)(=O)c1ccc(N/N=C2\C(=O)Nc3ccc4ncccc4c32)cc1 was 63%

Note to self: inhibition recorded for Fc1ccc(-c2cc(-c3c[nH]nc3-c3ccccn3)ccn2)cc1 was 3.05%

* * *

# assay-target: Protein-tyrosine kinase 2-beta (Homo sapiens);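 also: reported as mean percent inhibition of PYK2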
# stated-conditions: at 0.1 µM
The compounds listed here are annotated with their inhibition.
Report the figure in % without appending any unit label.

Recorded inhibition, per entry:
Cc1ccc2c(-c3ccnc(Nc4ccccc4)n3)c(-c3ccc(F)cc3)nn2n1 : 15.2
Cc1cccc(Nc2ncc(-c3ccccc3)o2)c1 : -0.77
CCN1CCC(CC(=O)Nc2n[nH]c3nnc(-c4cccc(F)c4F)cc23)CC1 : 2.01
O=S(=O)(CCNCc1ccc(-c2ccc3ncnc(Nc4ccc(OCc5cccc(F)c5)c(Cl)c4)c3c2)o1)c1ccccc1 : 5.1

Note to self: inhibition recorded for COc1cccc(-c2c[nH]c3c(N/N=C/c4ccncc4)ncnc23)c1 was 2.76

Note to self: inhibition recorded for CS(=O)(=O)CCNCc1coc(-c2ccc3ncnc(Nc4ccc(OCc5ccccc5)cc4)c3c2)c1 was 3.8

* * *

# assay-target: Protein kinase C beta type (Homo sapiens) (UniProt P05771);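 also: PKC-beta1 splice variant of the enzyme, figure reported as mean inhibition, measured within the GSK PKIS kinase profiling panel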
# Sequence (P05771 2-671 limits assumed): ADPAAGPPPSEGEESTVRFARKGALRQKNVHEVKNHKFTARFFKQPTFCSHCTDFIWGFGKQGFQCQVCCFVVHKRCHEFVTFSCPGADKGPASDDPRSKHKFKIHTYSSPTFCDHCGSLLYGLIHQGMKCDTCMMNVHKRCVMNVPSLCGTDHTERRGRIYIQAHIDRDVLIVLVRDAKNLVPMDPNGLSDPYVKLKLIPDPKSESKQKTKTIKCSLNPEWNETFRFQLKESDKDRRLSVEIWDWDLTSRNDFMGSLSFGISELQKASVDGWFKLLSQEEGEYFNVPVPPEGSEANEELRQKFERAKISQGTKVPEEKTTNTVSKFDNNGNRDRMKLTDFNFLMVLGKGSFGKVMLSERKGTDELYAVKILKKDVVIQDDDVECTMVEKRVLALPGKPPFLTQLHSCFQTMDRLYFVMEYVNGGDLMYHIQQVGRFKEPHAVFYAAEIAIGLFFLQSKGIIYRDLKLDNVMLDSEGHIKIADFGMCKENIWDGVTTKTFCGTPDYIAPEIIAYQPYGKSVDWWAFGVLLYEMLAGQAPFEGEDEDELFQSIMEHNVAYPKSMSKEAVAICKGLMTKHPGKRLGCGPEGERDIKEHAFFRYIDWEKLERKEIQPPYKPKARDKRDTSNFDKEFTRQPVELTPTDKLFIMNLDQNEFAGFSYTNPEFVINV
# stated-conditions: at 0.1 µM
# Description: GSK_PKIS: PKC-beta1 (splice variant) mean inhibition at 0.1 uM [Nanosyn]
observed-property: inhibition (%)
Report the figure in % without appending any unit label.

Recorded inhibition, per entry:
CN1CCC(n2cnc(-c3ccc(F)cc3)c2-c2ccnc(Nc3ccccc3)n2)CC1 : 16.1
CC(C)COC(=O)c1ccc2c(c1)/C(=C/Nc1ccc(S(N)(=O)=O)cc1)C(=O)N2 : 3.19

Continue with the next molecule.
Note to self: inhibition recorded for CCOc1ccc2c(-c3ccnc(Nc4cccc(C(F)(F)F)c4)n3)cnn2n1 was 0.58

* * *

# assay-target: Protein kinase C iota type (Homo sapiens);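 also: reported figures are mean inhibition values from the GSK PKIS screen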
# stated-conditions: at 1 µM
The compounds listed here are annotated with their inhibition.
Please report the result as a number followed by the unit.

Recorded inhibition, per entry:
COc1ccc(-c2nn3ncccc3c2-c2ccnc(Nc3ccc4c(c3)OCCO4)n2)cc1 : 0.67%
c1ccc(-c2nc3n(c2-c2ccc4c(c2)OCO4)CCC3)nc1 : 3.9%
COc1cccc(-c2c[nH]c3c(N/N=C/c4ccncc4)ncnc23)c1 : 20.3%
CC(C)COC(=O)c1ccc2c(c1)/C(=C/Nc1ccc(S(N)(=O)=O)cc1)C(=O)N2 : 1.73%
O=C(O[C@H]1CN[C@H](C#Cc2cc3ncnc(Nc4ccc(Cc5ccccc5)cc4)c3s2)C1)N1CCOCC1 : 2.38%
O=S(=O)(CCNCc1ccc(-c2ccc3ncnc(Nc4ccc(OCc5cccc(F)c5)c(Cl)c4)c3c2)o1)c1ccccc1 : 4.31%
CS(=O)(=O)CCNCc1ccc(-c2ccc3ncnc(Nc4ccc(OCc5ccccc5)c(C(F)(F)F)c4)c3c2)o1 : 2.76%
CCc1nn2ncccc2c1-c1ccnc(NC2CC2)n1 : 0.64%

Continue with the next compound.
Note to self: inhibition recorded for Cc1ccc(O)cc1Nc1ccnc2cc(-c3ccccn3)ccc12 was 4.56%
